Reference source for all entries: PubChem BioAssay

test: modulators of CIT2-GFP expression in yeast, primary screen, S. cerevisiae, GFP fusion, multiplex flow cytometry (AID 1870); conditions: 3 h, at 10 µM, stronger effect = higher value;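 also: barcoded CIT2-GFP strain pooled with four other GFP strains with rapamycin as positive control; median GFP fluorescence per well over plate mean of DMSO wells so 100% = DMSO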
Readout Kind: percent response of DMSO control (%)
State the answer as a number, implicitly in %.

For orientation, consider the following solved cases.
Request: Could you tell me which percent response of DMSO control is on file for Cn1cc(CN2CCCC(CO)(Cc3cccc(Cl)c3)C2)cn1 (stereo unspecified) ?
Response: 98.2

Request: Could you tell me which percent response of DMSO control is on file for "CC(C)(C)c1csc(N/N=C/c2cccnc2)n1" ?
Response: 95.9

Request: Could you tell me which percent response of DMSO control is on file for "Nc1cccc(C(=O)O)c1" ?
Response: 122

Request: Could you tell me which percent response of DMSO control is on file for "CCCCC[C@H](O)/C=C/[C@@H]1[C@@H](C/C=C\CCCC(=O)OC)[C@@H](O)C[C@H]1O" ?
Response: 99.2

Request: Could you tell me which percent response of DMSO control is on file for CN(C)c1ccc(O)c2c1CC1CC3[C@@H](N(C)C)C(=O)C(C(N)=O)=C(O)[C@]3(O)C(=O)C1=C2O (stereo partly specified) ?
Response: 97.6

Request: Could you tell me which percent response of DMSO control is on file for Nc1cccc2c1nnn2C1OC(CO)C(O)C(O)C1O (stereo unspecified) ?
Response: 102

Request: Could you tell me which percent response of DMSO control is on file for CC1(C)OC2OC(C(=O)N/N=C/c3ccccc3F)C3OC(C)(C)OC3C2O1 (stereo unspecified) ?
Response: 97.9

Request: Could you tell me which percent response of DMSO control is on file for "Cn1c(=O)c2c(ncn2Cc2ccccc2)n(C)c1=O" ?
Response: 88.6

---
Request: Could you tell me which percent response of DMSO control is on file for "O=C1OCCN1/N=C/c1ccc([N+](=O)[O-])o1" ?
Response: 109

Request: Could you tell me which percent response of DMSO control is on file for CC(C)NCC(O)COc1ccc(CC(N)=O)cc1 (stereo unspecified) ?
Response: 105

Request: Could you tell me which percent response of DMSO control is on file for COc1cccc(OCc2cc(C3Nc4ccccc4C(=O)N3Cc3ccco3)ccc2OC)c1 (stereo unspecified) ?
Response: 104

* * *

Let's look at some compounds and their measured GFP response vs DMSO.
experiment: RPL19A-GFP modulators, yeast TOR pathway, confirmation, cell-based, S. cerevisiae, flow cytometry, cherry picks, mother/daughter gates (AID 2270); settings: S. cerevisiae RPL19A-GFP strain, 3 h, measured here: daughter cell gate, at 10 µM, stronger effect = lower value, 100 = same GFP as DMSO wells
Answer format: number, then unit.

Request: Could you tell me which GFP response vs DMSO is on file for "C(=N\Nc1nc(-c2cccnc2)nc2ccccc12)/c1ccccc1" ?
Response: 101%

Request: Could you tell me which GFP response vs DMSO is on file for "Cc1ccccc1NC(=O)c1ccccc1" ?
Response: 98.1%

Request: Could you tell me which GFP response vs DMSO is on file for "NC(=O)c1ccccc1OCC(=O)c1ccc(Cl)cc1" ?
Response: 101%

---
Request: Could you tell me which GFP response vs DMSO is on file for "COc1ccc(CCNC2=C(Cl)C(=O)N(CCc3ccccc3)C2=O)cc1OC" ?
Response: 102%

Request: Could you tell me which GFP response vs DMSO is on file for COc1ccc(NC(=S)N2CCC(c3ccccc3)C2)cc1 (stereo unspecified) ?
Response: 98.8%

Request: Could you tell me which GFP response vs DMSO is on file for Cc1cccc(C)c1NC(=O)C(Cl)C(=O)c1ccccc1 (stereo unspecified) ?
Response: 87.6%

Request: Could you tell me which GFP response vs DMSO is on file for "COc1ccc(N2CCN(C(=O)c3ccc(Br)cc3)CC2)c([N+](=O)[O-])c1" ?
Response: 80.2%

Request: Could you tell me which GFP response vs DMSO is on file for CCOC(=O)C1CCCN(C(=O)c2ccc(-c3ccc([N+](=O)[O-])cc3)o2)C1 (stereo unspecified) ?
Response: 100%

Request: Could you tell me which GFP response vs DMSO is on file for "CCCN1CCN(C(=O)c2oc3ccccc3c2NC(=O)COc2ccc(OC)cc2)CC1" ?
Response: 100%

Request: Could you tell me which GFP response vs DMSO is on file for CCC(C(=O)O)n1nc(-c2ccccc2)c2cc(Cl)ccc21 (stereo unspecified) ?
Response: 98.4%

Request: Could you tell me which GFP response vs DMSO is on file for "Cc1ccccc1NC(=O)c1ccccc1O" ?
Response: 92.9%

* * *

assay: LAP4-GFP expression modulators in yeast, confirmation, cell-based, cherry picks, flow cytometry, mother/daughter gates (AID 2271);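 also: ratio of sample to DMSO plate mean so 100% equals DMSO level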; conditions: S. cerevisiae LAP4-GFP strain, 3 h, measured here: mother cell gate response, at 10 µM, stronger effect = higher value, 100 means same as DMSO control
Readout Kind: GFP response relative to DMSO (%)
State the answer as a number, implicitly in %.

Request: Could you tell me which GFP response relative to DMSO is on file for "Cc1cccc(CN2CCSc3sccc3C2=O)c1" ?
Response: 126

Request: Could you tell me which GFP response relative to DMSO is on file for "Cc1cccc(NC(=O)c2ccc([N+](=O)[O-])o2)c1" ?
Response: 125

Request: Could you tell me which GFP response relative to DMSO is on file for "CCC(=O)Nc1ccc(NC(=O)c2oc3ccccc3c2C)cc1" ?
Response: 101

Request: Could you tell me which GFP response relative to DMSO is on file for COc1cccc(-c2nnc(NC(=O)c3ccc(S(=O)(=O)N4CC(C)OC(C)C4)cc3)o2)c1 (stereo unspecified) ?
Response: 96.2

Request: Could you tell me which GFP response relative to DMSO is on file for "Cc1cc(-c2csc3nc[nH]c(=S)c23)cc(C)c1C" ?
Response: 109

The record that follows has no GFP response relative to DMSO shown yet.
Request: Could you tell me which GFP response relative to DMSO is on file for "COc1ccccc1-c1nnc(NC(=O)c2ccc(S(=O)(=O)N(C)Cc3ccccc3)cc2)o1" ?
Response: 94.6

* * *

Let's look at some compounds and their measured GFP response, % of DMSO.
assay: AGP1-GFP expression modulators, hit retest, confirmation, cell-based, flow cytometry, S. cerevisiae, cherry picks (AID 2273);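 also: median GFP channel fluorescence over the whole cell population gate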; settings: S. cerevisiae AGP1-GFP strain, 3 h, at 10 µM
State the answer as a number, implicitly in %.

Request: Could you tell me which GFP response, % of DMSO is on file for "Cc1ccc(-c2nc(NC(=O)c3nn(C)cc3[N+](=O)[O-])sc2C)cc1" ?
Response: 101

Request: Could you tell me which GFP response, % of DMSO is on file for "Nc1cccc(C(=O)Nc2ccccc2Cl)c1" ?
Response: 93.5

Request: Could you tell me which GFP response, % of DMSO is on file for "Cc1ccc(N2C(=O)C(Cl)=C(Nc3c(C)n(C)n(-c4ccccc4)c3=O)C2=O)cc1" ?
Response: 105

Request: Could you tell me which GFP response, % of DMSO is on file for "Cc1ccc(Cl)cc1N1CCN(C(=O)CSc2ccsc2[N+](=O)[O-])CC1" ?
Response: 99.4

Request: Could you tell me which GFP response, % of DMSO is on file for "COc1ccc(/C=N/Nc2nnc(C)n2N)cc1OC(C)=O" ?
Response: 102

Request: Could you tell me which GFP response, % of DMSO is on file for "Cc1ccc(-c2nc(NC(=O)c3nn(C)cc3[N+](=O)[O-])sc2C)cc1C" ?
Response: 95.4

Request: Could you tell me which GFP response, % of DMSO is on file for "CCOc1cc(/C=N/Nc2nc(C)cc(=O)[nH]2)ccc1O" ?
Response: 100

Request: Could you tell me which GFP response, % of DMSO is on file for CCC(Sc1nc(=O)cc(N)n1-c1ccccc1)C(=O)Nc1cc(C)on1 (stereo unspecified) ?
Response: 102

Request: Could you tell me which GFP response, % of DMSO is on file for "Clc1cccc(Cn2ncc3ccccc32)c1" ?
Response: 94.1

Request: Could you tell me which GFP response, % of DMSO is on file for "CCNC(=O)/C(C#N)=C/c1c(N(Cc2ccccc2)Cc2ccccc2)nc2ccccn2c1=O" ?
Response: 99.3

The record that follows has no GFP response, % of DMSO shown yet.
Request: Could you tell me which GFP response, % of DMSO is on file for "O=[N+]([O-])c1ccc(Sc2ccccc2Cl)nc1" ?
Response: 106

* * *

biological target: AP-2 complex subunit beta (Homo sapiens) (UniProt P63010); assay: inhibitors of arrestin peptide binding to AP2, pilot screen, biochemical, validation set, GST-AP2 beads, flow cytometry (AID 504541); settings: FITC arrestin peptide, at 10 µM, stronger effect = higher value, AP2 beta2 appendage fragment, R879A mutant;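 also: AP2 carries R879A mutation and is captured from E. coli lysate; bead-bound FITC arrestin peptide fluorescence measuring arrestin peptide binding to AP2; 0% = DMSO wells and 100% = excess unlabeled arrestin peptide control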
Sequence (P63010 whole entry, looked up, the tested form may be a part, one chain of several): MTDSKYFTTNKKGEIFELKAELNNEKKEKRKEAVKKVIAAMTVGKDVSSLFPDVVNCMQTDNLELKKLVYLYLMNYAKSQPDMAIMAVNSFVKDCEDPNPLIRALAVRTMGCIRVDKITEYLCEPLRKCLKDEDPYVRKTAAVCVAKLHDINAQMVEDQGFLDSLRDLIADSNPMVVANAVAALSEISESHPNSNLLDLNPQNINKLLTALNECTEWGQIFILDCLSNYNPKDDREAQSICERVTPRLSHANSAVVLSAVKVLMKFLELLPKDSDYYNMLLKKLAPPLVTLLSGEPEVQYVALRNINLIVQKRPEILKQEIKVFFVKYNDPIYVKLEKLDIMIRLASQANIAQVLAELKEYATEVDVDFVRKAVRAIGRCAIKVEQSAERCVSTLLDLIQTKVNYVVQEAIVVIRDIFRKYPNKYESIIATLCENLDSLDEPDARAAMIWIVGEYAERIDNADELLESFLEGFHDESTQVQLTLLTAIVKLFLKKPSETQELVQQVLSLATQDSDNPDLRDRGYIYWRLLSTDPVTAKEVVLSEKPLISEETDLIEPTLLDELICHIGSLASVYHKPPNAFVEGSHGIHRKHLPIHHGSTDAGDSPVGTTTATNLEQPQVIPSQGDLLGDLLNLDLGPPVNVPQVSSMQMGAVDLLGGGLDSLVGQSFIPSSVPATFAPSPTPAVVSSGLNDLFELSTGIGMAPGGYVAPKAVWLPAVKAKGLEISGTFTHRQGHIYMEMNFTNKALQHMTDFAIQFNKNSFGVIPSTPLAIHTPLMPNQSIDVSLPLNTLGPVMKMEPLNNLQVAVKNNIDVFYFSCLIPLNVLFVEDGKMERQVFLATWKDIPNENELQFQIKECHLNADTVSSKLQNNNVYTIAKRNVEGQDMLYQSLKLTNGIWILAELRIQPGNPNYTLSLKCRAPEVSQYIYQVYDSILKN
Let's look at some compounds and their measured inhibition.
State the answer as a number, implicitly in %.

For orientation, consider the following solved cases.
Request: Could you tell me which inhibition is on file for COc1ccc(CC(=O)N2CC3(C)CC2CC(C)(C)C3)cc1OC (stereo not drawn) ?
Response: -2.57

Request: Could you tell me which inhibition is on file for "O=C1OCCN1/N=C/c1ccc([N+](=O)[O-])o1" ?
Response: 3.09

---
Request: Could you tell me which inhibition is on file for "Cn1c(=O)c2c(nc(SCCN3CCCCC3)n2C)n(C)c1=O" ?
Response: -6.3

Request: Could you tell me which inhibition is on file for "O=C(O)CCCCCCCC(=O)O" ?
Response: 12.5

Request: Could you tell me which inhibition is on file for CC1(C)S[C@@H]2[C@H](NC(=O)C(C(=O)O)c3ccccc3)C(=O)N2[C@H]1C(=O)O (stereo partly drawn) ?
Response: 1.78

Request: Could you tell me which inhibition is on file for "Cc1ccc(CSCC(=O)NCCCN2CCOCC2)cc1" ?
Response: -6.22

Request: Could you tell me which inhibition is on file for "O=C1N=c2ccccc2=C1c1[nH]c(=S)[nH]c1O" ?
Response: 2.65

Request: Could you tell me which inhibition is on file for "Nc1cccc(C(=O)O)c1" ?
Response: -0.66

Request: Could you tell me which inhibition is on file for "Cn1nc(-c2ccccn2)nc2c(=O)n(C)c(=O)nc1-2" ?
Response: 17.4

Request: Could you tell me which inhibition is on file for "O=[N+]([O-])c1cc(/C=N/n2cnnc2)ccc1N1CCCC1" ?
Response: 5.45

Request: Could you tell me which inhibition is on file for "CC(=O)O[C@]1(C(C)=O)CC[C@H]2[C@@H]3C=C(C)C4=CC(=O)CC[C@]4(C)[C@H]3CC[C@@]21C" ?
Response: 1.74

Request: Could you tell me which inhibition is on file for "Cc1csc(CCc2nc(C)cs2)n1" ?
Response: -2.65

Request: Could you tell me which inhibition is on file for "CC(=O)OC[C@H]1O[C@@H](n2ncc(=O)[nH]c2=O)[C@H](OC(C)=O)[C@@H]1OC(C)=O" ?
Response: -6.69

Request: Could you tell me which inhibition is on file for "COc1cc(/C=C/C(=O)N2CCCC2)cc(OC)c1OC" ?
Response: -0.17

Request: Could you tell me which inhibition is on file for COc1c(C)cc(C(=O)C2CCCN(Cc3ccc(Oc4ncccn4)cc3)C2)cc1C (stereo not drawn) ?
Response: 4.02

Request: Could you tell me which inhibition is on file for "Cn1c2[n+](c3ccc(Cl)cc3c1=O)Cc1ccccc1-2" ?
Response: 1.06

Request: Could you tell me which inhibition is on file for "C#CCN(C)Cc1ccccc1" ?
Response: -10.1

Request: Could you tell me which inhibition is on file for "CCCCC(=O)O[C@]1(C(=O)CO)CC[C@H]2[C@@H]3CCC4=CC(=O)CC[C@]4(C)[C@H]3[C@@H](O)C[C@@]21C" ?
Response: -7.47

Request: Could you tell me which inhibition is on file for "CCCCNC(=O)NS(=O)(=O)c1ccc(C)cc1" ?
Response: -9.7
